Value source: patent US10058530B2

experiment: clinical; conditions: human, in vivo, inhaled or intranasal, 34.2 mg, mean residence time in plasma, 34.2 mg inhaled (double dose)
measured quantity: MRT (h)

compound="O=C([O-])c1cc(=O)c2c(OCC(O)COc3cccc4oc(C(=O)[O-])cc(=O)c34)cccc2o1.[Na+].[Na+] [cromolyn sodium]" unit_of_measure=h observed=2.8

###

test: clinical; conditions: human, in vivo, inhaled or intranasal, half-life of clearance from plasma, range, inhaled
measured quantity: half-life

compound="O=C([O-])c1cc(=O)c2c(OCC(O)COc3cccc4oc(C(=O)[O-])cc(=O)c34)cccc2o1.[Na+].[Na+] [cromolyn sodium]" observed="0.5 to 3.7 h"
